Target: T1, human pituitary adenylate cyclase-activating polypeptide type I receptor (human, UniProt P41586 21-468)
T1 construct: whole, on cells; On SH-SY5Y or recombinant CHO cells (cAMP assay), as membranes of hPAC-1 AequoScreen CHO cells (radioligand assay) and on CHOK1/huPac1 whole cells (KinExA); also called human PAC1; hPAC1
T1 sequence (looked up): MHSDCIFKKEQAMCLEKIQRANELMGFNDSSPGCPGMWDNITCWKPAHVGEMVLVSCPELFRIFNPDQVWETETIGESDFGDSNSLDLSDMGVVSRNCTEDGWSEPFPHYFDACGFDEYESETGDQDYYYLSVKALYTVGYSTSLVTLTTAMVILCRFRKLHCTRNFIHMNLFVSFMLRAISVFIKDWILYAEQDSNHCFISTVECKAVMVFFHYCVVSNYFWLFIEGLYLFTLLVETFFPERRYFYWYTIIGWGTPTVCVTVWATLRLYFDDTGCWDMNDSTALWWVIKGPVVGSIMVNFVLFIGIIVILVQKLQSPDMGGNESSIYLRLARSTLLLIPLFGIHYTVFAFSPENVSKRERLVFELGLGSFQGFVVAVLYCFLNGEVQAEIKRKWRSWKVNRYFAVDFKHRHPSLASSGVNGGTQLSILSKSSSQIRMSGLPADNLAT
Test: radioligand competition, hPAC1 CHO membranes; competitor 125I-29B
reportedMetric: Ki (nM)
API: value field is a number in nM; no unit string.

## Input # lookup: Ki of FTDSYSRYRKQMAVKKYLAAVLGKRYKQRVKNK (peptide, UniProt P18509 137-169, looked up, domain: PACAP 6-38) [PACAP 6-38]
## Output 2.39
